# Tested on: A2780 cells
# assay: MTT cytotoxicity assay, cisplatin-sensitive ovarian cancer cell line
# Assay type: cell-based
# measurement-context: 72 h incubation
Would you kindly list pIC50 for each of these compounds?
Scale for pIC50: -log10 of concentration given in mol/L; no unit attached.

Query block: Which pIC50 is reported for this compound? O=C1[O][Pt-2]2([NH2+]C3CCCC[C@H]3[NH2+]2)[O]C1=O (some centres unmarked)
Result block: 6.60

Query block: Query (compound): N.N.[Cl][Pt][Cl] [cisplatin, cis-diamminedichloroplatinum(II)] ; field requested: pIC50
Result block: 6.22
